The reader will find reported Depletion after 16 h of incubation with cells values listed item by item below.
Settings: rat
// return numeric value only (unit: %, not printed)

* CCOP(=S)(OCC)Oc1ccc2c(C)c(Cl)c(=O)oc2c1 | 99.03
* CCOP(=S)(OCC)Oc1cc(-c2ccccc2)on1 | 94.65
* COP(=S)(OC)SCn1nnc2ccccc2c1=O | 94.04
* c1ccc2c(c1)[nH]c1cnccc12 | 85.03
* CCOP(=S)(OCC)SCSC(C)(C)C | 98.65
* CCOC(=O)c1cn2nc(OP(=S)(OCC)OCC)cc2nc1C | 88.65
* CCN(CC)C(=O)SCc1ccc(Cl)cc1 | 98.6
* CCOP(=S)(OCC)Oc1nc(Cl)c(Cl)cc1Cl | 92.74

As a next step, examine the molecule that follows.
Lab note: measured Depletion after 16 h of incubation with cells of `COc1c2ccoc2cc2oc(=O)ccc12` was 45.7

###

Test system: p53 signaling (p53RE-bla HCT-116 cells)
Test: cells
Format: cell-based
Measurement kind: Efficacy, p53 activation, primary screening
Just the number, please, no unit attached.

Known Efficacy, p53 activation, primary screening results, listed for orientation:
• Oc1c(Cl)cc(Cl)cc1Sc1cc(Cl)cc(Cl)c1O [Sodium bithionolate] = 34.4493
• Oc1c(Cl)cc(Cl)cc1Sc1cc(Cl)cc(Cl)c1O [Bithionol] = 93.9867
• O=C(c1ccc(O)cc1)c1ccc(O)cc1O [2,4,4'-Trihydroxybenzophenone] = 51.9983
• Cl.O.c1cnc2c(c1)ccc1cccnc12 = 35.453

Observed Efficacy, p53 activation, primary screening, p53 signaling (p53RE-bla HCT-116 cells), `COC(=O)c1nc(Cl)c(Cl)nc1N` : 51.0133

###

Assay system p53RE-bla HCT-116 cells; read-out recorded as Viability EC50, cherry pick confirmation.
Measurement kind: Viability EC50, cherry pick confirmation

- CCCSP(=S)(OCC)Oc1ccc(SC)cc1 (stereo not drawn): inactive
- CCOc1ccc2c(c1)C(C)=CC(C)(C)N2: inactive
- O=C(NC(=O)c1c(F)cccc1F)Nc1cc(Cl)c(Oc2ncc(C(F)(F)F)cc2Cl)c(Cl)c1: inactive

###

Test system: p53 signaling (p53RE-bla HCT-116 cells)
Details: read-out: p53 activation EC50, HLM
Doc: threshold 10 µM (exclusive). Items with EC50 beneath it return class 1; others return class 0.

Check out these entries, answers already filled in.
- CCN(CC)c1ccc2c(C)cc(=O)oc2c1 [7-Diethylamino-4-methylcoumarin]: class 0
- CN1CCC(Nc2ncc3ncnc(Nc4ccc(F)c(Cl)c4)c3n2)CC1.Cl.Cl [Falnidamol dihydrochloride]: class 0
- Clc1ccc2cc3ccccc3cc2c1 [2-Chloroanthracene]: class 0
- CCN(CC)C(=O)C(Cl)=C(C)OP(=O)(OC)OC [Phosphamidon]: class 1
- CCOP(=S)(OCC)Oc1cc(C)nc(N(CC)CC)n1 [Pirimiphos-ethyl]: class 1

Next:
In the record for O=C1CCCc2c1cc1ccc3cccc4ccc2c1c34 [9,10-Dihydrobenzo[a]pyren-7(8H)-one] , is EC50 less than 10 µM?
class 1

###

Tested on: p53 signaling (p53RE-bla HCT-116 cells)
Structures can show the parent of a compound that is named as a salt.
Measurement kind: Efficacy, p53 activation, cherry pick confirmation

• CCOC(=O)NC(=S)Nc1ccccc1NC(=S)NC(=O)OCC [Thiophanate] = inactive
• Nc1ccn([C@@H]2O[C@H](CO)[C@@H](O)[C@@H]2O)c(=O)n1 = inactive
• Oc1ccc(C(c2ccc(O)cc2)(C(F)(F)F)C(F)(F)F)cc1 = inactive
• O=c1c(O)c(-c2ccc(O)c(O)c2)oc2cc(O)cc(O)c12 = inactive
• Oc1c(Cl)cc(Cl)cc1Sc1cc(Cl)cc(Cl)c1O [Sodium bithionolate] = inactive

Considering `COC1=CC(=O)C[C@@H](C)[C@]12Oc1c(Cl)c(OC)cc(OC)c1C2=O` , its Efficacy, p53 activation, cherry pick confirmation with p53 signaling (p53RE-bla HCT-116 cells) was recorded as inactive

Given the compound `CO[C@@]12[C@H](COC(N)=O)C3=C(C(=O)C(C)=C(N)C3=O)N1C[C@@H]1N[C@@H]12` and test system p53 signaling (p53RE-bla HCT-116 cells), the measured Efficacy, p53 activation, cherry pick confirmation is inactive

Entry c1cc(OCC2CO2)ccc1Cc1ccc(OCC2CO2)cc1 (stereo not shown) [Bis[4-(glycidyloxy)phenyl]methane] under p53 signaling (p53RE-bla HCT-116 cells) had Efficacy, p53 activation, cherry pick confirmation of inactive

Value sought: Efficacy, p53 activation, cherry pick confirmation, system p53 signaling (p53RE-bla HCT-116 cells), item `O=[Se](O)O` . Result: inactive

Assay p53 signaling (p53RE-bla HCT-116 cells), sample COc1cccc2c1C(=O)c1c(O)c3c(c(O)c1C2=O)C[C@@](O)(C(=O)CO)C[C@@H]3O[C@H]1C[C@H](N)[C@H](O)[C@H](C)O1 [Adriamycin hydrochloride] , Efficacy, p53 activation, cherry pick confirmation read: inactive
